System: SKOV-3
Protocol Details: SRB colorimetric cell growth inhibition assay, SKOV-3
Assay type: cell-based
Measurement Parameters: SKOV-3; cell killing (cytotoxic effect); read-out: LC50 SKOV-3
Readout Name: LC50 (concentration causing 50% net cell killing) (µM)
Return type: number; implicit unit µM.

## Input I would be grateful if you could share the reported LC50 (concentration causing 50% net cell killing) for COc1cc(-c2c3n(c4c(=O)oc5cc(OS(C)(=O)=O)c(OC)cc5c24)CCc2cc(OS(C)(=O)=O)c(OC)cc2-3)ccc1OS(C)(=O)=O [Compound 22] .
## Output 13.6

* * *

Property: CC50; scope: individual molecules
Tested on: SK-BR-3
Protocol Details: SRB colorimetric cell growth inhibition assay, SK-BR-3
Type: cell-based
Measurement Parameters: Homo sapiens, SK-BR-3, SK-BR-3; cell killing (cytotoxic effect); read-out: LC50 SK-BR-3
Return type: number; implicit unit µM.

These solved cases illustrate the format of a correct answer.
COc1cc(-c2c3n(c4c(=O)oc5cc(OC(=O)[C@H](NC(=O)OC(C)(C)C)C(C)C)c(OC)cc5c24)CCc2cc(OC(=O)[C@H](NC(=O)OC(C)(C)C)C(C)C)c(OC)cc2-3)ccc1OC(=O)[C@H](NC(=O)OC(C)(C)C)C(C)C | 8.95
COc1cc2ccn3c(c(-c4ccc(OC(=O)[C@@H](NC(=O)OC(C)(C)C)C(C)C)c(OC)c4)c4c5cc(OC)c(OC(=O)[C@@H](NC(=O)OC(C)(C)C)C(C)C)cc5oc(=O)c43)c2cc1OC | 5.84
COc1cc(-c2c3n(c4c(=O)oc5cc(O)c(OC)cc5c24)CCc2c-3cc(OC)c(OC)c2O)ccc1O | 18.8
COc1cc(-c2c3c4cc(OC)c(OC(=O)CCc5ccccc5)cc4oc(=O)c3n3ccc4cc(OC(=O)CCc5ccccc5)c(OC)cc4c23)ccc1OC(=O)CCc1ccccc1 | 9.19
CC[C@H](C)[C@H](N)C(=O)Oc1ccc(-c2c3c4cc(OC)c(OC(=O)[C@@H](N)[C@@H](C)CC)cc4oc(=O)c3n3ccc4cc(OC(=O)[C@@H](N)[C@@H](C)CC)c(OC)cc4c23)cc1OC | 0.101

## Input Any idea what CC50 came out for COc1cc2ccn3c(c(-c4ccc(OC(=O)[C@@H](N)C(C)C)c(OC)c4)c4c5cc(OC)c(OC(=O)[C@@H](N)C(C)C)cc5oc(=O)c43)c2cc1OC on SK-BR-3?
## Output 14

* * *

Test system: LoVo
Protocol Details: SRB colorimetric cell growth inhibition assay, LoVo
Format: cell-based
Measurement Parameters: Homo sapiens, LoVo; total growth inhibition (cytostatic effect); read-out: TGI LOVO
Readout Name: log10 IC (TGI) (log10 of the value in µM)
The figures below represent log10 of IC (TGI), where IC (TGI) is stated in µM.

These solved cases illustrate the format of a correct answer.
COc1cc2c(cc1O)oc(=O)c1c2c(-c2cccc([N+](=O)[O-])c2)c2c3cc(OC)c(O)cc3ccn21 [Compound 221] | 0.79
COc1cc(-c2c3n(c4c(=O)oc5cc(OC(=O)CCc6ccccc6)c(OC)cc5c24)CCc2cc(OC(=O)CCc4ccccc4)c(OC)cc2-3)ccc1OC(=O)CCc1ccccc1 [Compound 11] | 0.06

## Input Any idea what log10 IC (TGI) came out for COc1cc(-c2c3c4cc(OC)c(O)cc4oc(=O)c3n3ccc4cc(O)c(OC)cc4c23)ccc1O [Compound 3, lamellarin D, reference compound] on LoVo?
## Output -0.02

## Input Any idea what log10 IC (TGI) came out for COc1cc2ccn3c(c(-c4ccc(OC(=O)[C@@H](NC(=O)OC(C)(C)C)C(C)C)c(OC)c4)c4c5cc(OC)c(OC(=O)[C@@H](NC(=O)OC(C)(C)C)C(C)C)cc5oc(=O)c43)c2cc1OC [Compound 15] on LoVo?
## Output 0.70

## Input Any idea what log10 IC (TGI) came out for COc1cc2c(cc1OC)-c1c(-c3ccc(OC(=O)[C@H](C)NC(=O)OC(C)(C)C)c(OC)c3)c3c4cc(OC)c(OC(=O)[C@H](C)NC(=O)OC(C)(C)C)cc4oc(=O)c3n1CC2 [Compound 21] on LoVo?
## Output 0.70

## Input Any idea what log10 IC (TGI) came out for COc1cc(-c2c3c4cc(OC)c(OC(C)C)cc4oc(=O)c3n3ccc4c(OC(C)C)c(OC)c(OC)cc4c23)ccc1OC(C)C [Compound 27] on LoVo?
## Output 0.34

* * *

Tested on: DU-145
Protocol Details: SRB colorimetric cell growth inhibition assay, DU-145
Assay type: cell-based
Measurement Parameters: DU-145; GI=growth inhibition; read-out: GI50 DU-145
Readout Name: GI50 (nM)
Return type: number; implicit unit nM.

COc1cc(-c2c3c4cc(OC)c(OC(=O)[C@@H](N)Cc5ccccc5)cc4oc(=O)c3n3ccc4c(OC(=O)[C@@H](N)Cc5ccccc5)c(OC)c(OC)cc4c23)ccc1OC(=O)[C@@H](N)Cc1ccccc1 [Compound 31] | 301
COc1cc(-c2c3n(c4c(=O)oc5cc(OC(=O)[C@@H](N)C(C)C)c(OC)cc5c24)CCc2cc(OC(=O)[C@@H](N)C(C)C)c(OC)cc2-3)ccc1OC(=O)[C@@H](N)C(C)C [Compound 135] | 1600
COc1cc(-c2c3c4cc(OC)c(OC(=O)[C@@H](N)Cc5ccccc5)cc4oc(=O)c3n3ccc4c(OC(=O)[C@@H](N)Cc5ccccc5)c(OC)c(OC)cc4c23)ccc1OC(=O)[C@@H](N)Cc1ccccc1 [Compound 207] | 23
COc1cc(-c2c3c4cc(OC)c(OC(=O)[C@H](C)N)cc4oc(=O)c3n3ccc4cc(O)c(OC)cc4c23)ccc1O.Cl [Compound 240] | 60.6

## Input I would be grateful if you could share the reported GI50 for COc1cc2ccn3c(c(-c4ccc(OC(=O)[C@@H](N)C(C)C)c(OC)c4)c4c5cc(OC)c(OC(=O)[C@@H](N)C(C)C)cc5oc(=O)c43)c2cc1OC [Compound 14] .
## Output 517

* * *

Test system: DU-145
Protocol Details: SRB colorimetric cell growth inhibition assay, DU-145
Assay type: cell-based
Measurement Parameters: DU-145; cell killing (cytotoxic effect); read-out: LC50 DU-145
The threshold is 3 µM. Values of CC50 beneath it are tagged Y; values meeting or exceeding it are tagged N.

Example entries and their recorded answers appear below.
COc1cc(-c2c3c4cc(OC)c(OC(=O)[C@@H](N)Cc5ccccc5)cc4oc(=O)c3n3ccc4c(OC(=O)[C@@H](N)Cc5ccccc5)c(OC)c(OC)cc4c23)ccc1OC(=O)[C@@H](N)Cc1ccccc1 [Compound 31] | N
COc1cc2c(cc1O)oc(=O)c1c2c(-c2ccc(OC(=O)[C@H](C)N)c(OC)c2)c2c3cc(OC)c(O)cc3ccn21.Cl | N
COc1cc(-c2c3c4cc(OC)c(OC(=O)[C@@H](N)Cc5ccccc5)cc4oc(=O)c3n3ccc4c(OC(=O)[C@@H](N)Cc5ccccc5)c(OC)c(OC)cc4c23)ccc1OC(=O)[C@@H](N)Cc1ccccc1 [Compound 207] | Y
COc1cc(-c2c3n(c4c(=O)oc5cc(OS(C)(=O)=O)c(OC)cc5c24)CCc2cc(OS(C)(=O)=O)c(OC)cc2-3)ccc1OS(C)(=O)=O | N

Continue with the next compound.
## Input Please determine if COc1cc(-c2c3c4cc(OC)c(OC(=O)[C@H](C)N)cc4oc(=O)c3n3ccc4c(OC(=O)[C@H](C)N)c(OC)c(OC)cc4c23)ccc1OC(=O)[C@H](C)N [Compound 16] is below 3 µM in terms of CC50.
## Output Y

* * *

System: DU-145
Protocol Details: SRB colorimetric cell growth inhibition assay, DU-145
Type: cell-based
Measurement Parameters: Homo sapiens; DU-145; GI=growth inhibition; read-out: GI50 DU-145
The threshold is 200 nM. Values of GI50 beneath it are tagged True; values meeting or exceeding it are tagged False.

CC[C@H](C)[C@H](NC(=O)OC(C)(C)C)C(=O)Oc1ccc(-c2c3c4cc(OC)c(OC(=O)[C@@H](NC(=O)OC(C)(C)C)[C@@H](C)CC)cc4oc(=O)c3n3ccc4cc(OC(=O)[C@@H](NC(=O)OC(C)(C)C)[C@@H](C)CC)c(OC)cc4c23)cc1OC | False
COc1cc(-c2c3n(c4c(=O)oc5cc(OC(=O)[C@H](C)NC(=O)[C@H](C)NC(=O)OC(C)(C)C)c(OC)cc5c24)CCc2cc(OC(=O)[C@H](C)NC(=O)[C@H](C)NC(=O)OC(C)(C)C)c(OC)cc2-3)ccc1OC(=O)[C@H](C)NC(=O)[C@H](C)NC(=O)OC(C)(C)C | False
COc1cc(-c2c3c4cc(OC)c(OC(=O)[C@@H](NC(=O)OC(C)(C)C)C(C)C)cc4oc(=O)c3n3ccc4cc(OC(=O)[C@@H](NC(=O)OC(C)(C)C)C(C)C)c(OC)cc4c23)ccc1OC(=O)[C@@H](NC(=O)OC(C)(C)C)C(C)C | True

## Input Please determine if COc1cc(-c2c3c4cc(OC)c(OC(=O)[C@@H](N)CCCCNC(=O)OCc5ccccc5)cc4oc(=O)c3n3ccc4c(OC(=O)[C@@H](N)CCCCNC(=O)OCc5ccccc5)c(OC)c(OC)cc4c23)ccc1OC(=O)[C@@H](N)CCCCNC(=O)OCc1ccccc1 is below 200 nM in terms of GI50.
## Output True
